- Test system: E. faecium
- methodDescription: In vitro MIC testing, antibacterial spectrum of activity
- Assay type: cell-based
- particulars: Enterococcus faecium
MIC90 for assorted compounds

{"columns": ["sampleSmiles", "MIC90"],
 "data": [
  ["CC[C@H]1OC(=O)[C@H](C)[C@@H](O[C@H]2C[C@@](C)(OC)[C@@H](O)[C@H](C)O2)[C@H](C)[C@@H](O[C@@H]2O[C@H](C)C[C@H](N(C)C)[C@H]2O)[C@](C)(O)C[C@@H](C)C(=O)[C@H](C)[C@@H](O)[C@]1(C)O", "> 32 µg/mL"],
  ["CN[C@H](CC(C)C)C(=O)N[C@H]1C(=O)N[C@@H](CC(N)=O)C(=O)N[C@H]2C(=O)N[C@H]3C(=O)N[C@H](C(=O)N[C@H](C(=O)O)c4cc(O)cc(O)c4-c4cc3ccc4O)[C@H](O)c3ccc(c(Cl)c3)Oc3cc2cc(c3O[C@@H]2O[C@H](CO)[C@@H](O)[C@H](O)[C@H]2O[C@H]2C[C@](C)(N)[C@H](O)[C@H](C)O2)Oc2ccc(cc2Cl)[C@H]1O", "1 µg/mL"],
  ["CN(C)[C@@H]1C(O)=C(C(N)=O)C(=O)[C@@]2(O)C(O)=C3C(=O)c4c(O)cccc4[C@@](C)(O)[C@H]3C[C@@H]12", "> 64 µg/mL"],
  ["CCC[C@@H]1C[C@@H](C(=O)N[C@@H]([C@H]2O[C@H](SC)[C@H](O)[C@@H](O)[C@H]2O)[C@H](C)Cl)N(C)C1", "> 32 µg/mL"]
]}

###

- Tested on: Chlamydia trachomatis
- methodDescription: Susceptibility testing (MIC, MBC) of 10 isolates of C. trachomatis in HEp-2 cells
- Format: cell-based
- particulars: after passage
assayMetric: MBC Range

{"columns": ["sampleSmiles", "testSystem", "measured"],
 "data": [
  ["C[C@H]1COc2c(N3CCN(C)CC3)c(F)cc3c(=O)c(C(=O)O)cn1c23", "Chlamydia trachomatis", "0.125 to 1 µg/mL"],
  ["CON(C)Cc1ccc(O)c2c1C[C@H]1C[C@H]3[C@H](N(C)C)C(O)=C(C(N)=O)C(=O)[C@@]3(O)C(O)=C1C2=O", "Chlamydia trachomatis", "0.03 to 0.125 µg/mL"],
  ["C[C@H]1c2cccc(O)c2C(=O)C2=C(O)[C@]3(O)C(=O)C(C(N)=O)=C(O)[C@@H](N(C)C)[C@@H]3[C@@H](O)[C@@H]21", "Chlamydia trachomatis", "0.03 to 0.25 µg/mL"],
  ["CC[C@H]1OC(=O)[C@H](C)[C@@H](O[C@H]2C[C@@](C)(OC)[C@@H](O)[C@H](C)O2)[C@H](C)[C@@H](O[C@@H]2O[C@H](C)C[C@H](N(C)C)[C@H]2O)[C@](C)(O)C[C@@H](C)CN(C)[C@H](C)[C@@H](O)[C@]1(C)O", "Chlamydia trachomatis", "0.007 to 0.03 µg/mL"]
]}

###

- Test system: S. pneumoniae
- methodDescription: In vitro MIC testing, antibacterial spectrum of activity
- Format: cell-based, Streptococcus pneumoniae
- particulars: Streptococcus pneumoniae; S. pneumoniae [PSSP] (32 isolates); read-out: MIC50

{"columns": ["compound", "MIC50 [µg/mL]"],
 "data": [
  ["CN(C)c1ccc(O)c2c1C[C@H]1C[C@H]3[C@H](N(C)C)C(O)=C(C(N)=O)C(=O)[C@@]3(O)C(O)=C1C2=O [Minocycline, minocycline]", 0.06],
  ["CC[C@H]1OC(=O)[C@H](C)[C@@H](O[C@H]2C[C@@](C)(OC)[C@@H](O)[C@H](C)O2)[C@H](C)[C@@H](O[C@@H]2O[C@H](C)C[C@H](N(C)C)[C@H]2O)[C@](C)(O)C[C@@H](C)C(=O)[C@H](C)[C@@H](O)[C@]1(C)O [Erythromycin]", 0.03],
  ["C[C@H]1c2cccc(O)c2C(=O)C2=C(O)[C@]3(O)C(=O)C(C(N)=O)=C(O)[C@@H](N(C)C)[C@@H]3[C@@H](O)[C@@H]21 [Doxycycline, doxycycline]", 0.06],
  ["CCC[C@@H]1C[C@@H](C(=O)N[C@@H]([C@H]2O[C@H](SC)[C@H](O)[C@@H](O)[C@H]2O)[C@H](C)Cl)N(C)C1 [Clindamycin]", 0.03],
  ["CON(C)Cc1ccc(O)c2c1C[C@H]1C[C@H]3[C@H](N(C)C)C(O)=C(C(N)=O)C(=O)[C@@]3(O)C(O)=C1C2=O [The Active]", 0.12]
]}

###

- System: Chlamydia trachomatis
- methodDescription: Susceptibility testing (MIC, MBC) of 10 isolates of C. trachomatis in HEp-2 cells
- Assay type: cell-based
- particulars: 72 h

{"columns": ["compound", "testSystem", "MIC Range"],
 "data": [
  ["C[C@H]1COc2c(N3CCN(C)CC3)c(F)cc3c(=O)c(C(=O)O)cn1c23 [Levofloxacin]", "Chlamydia trachomatis", "0.125 to 0.5 µg/mL"],
  ["CON(C)Cc1ccc(O)c2c1C[C@H]1C[C@H]3[C@H](N(C)C)C(O)=C(C(N)=O)C(=O)[C@@]3(O)C(O)=C1C2=O [The Active]", "Chlamydia trachomatis", "0.03 to 0.125 µg/mL"],
  ["C[C@H]1c2cccc(O)c2C(=O)C2=C(O)[C@]3(O)C(=O)C(C(N)=O)=C(O)[C@@H](N(C)C)[C@@H]3[C@@H](O)[C@@H]21 [Doxycycline, doxycycline]", "Chlamydia trachomatis", "0.03 to 0.25 µg/mL"],
  ["CC[C@H]1OC(=O)[C@H](C)[C@@H](O[C@H]2C[C@@](C)(OC)[C@@H](O)[C@H](C)O2)[C@H](C)[C@@H](O[C@@H]2O[C@H](C)C[C@H](N(C)C)[C@H]2O)[C@](C)(O)C[C@@H](C)CN(C)[C@H](C)[C@@H](O)[C@]1(C)O [Azithromycin]", "Chlamydia trachomatis", "0.003 to 0.03 µg/mL"]
]}

###

- System: S. aureus
- methodDescription: In vitro MIC testing, antibacterial spectrum of activity
- Assay type: cell-based, Staphylococcus aureus
- particulars: Staphylococcus aureus, MSSA, S. aureus [MSSA] (32 isolates); read-out: MIC50
MIC50 for assorted compounds

{"columns": ["sampleSmiles", "MIC50, µg/mL"],
 "data": [
  ["C[C@H]1c2cccc(O)c2C(=O)C2=C(O)[C@]3(O)C(=O)C(C(N)=O)=C(O)[C@@H](N(C)C)[C@@H]3[C@@H](O)[C@@H]21", 0.12],
  ["CON(C)Cc1ccc(O)c2c1C[C@H]1C[C@H]3[C@H](N(C)C)C(O)=C(C(N)=O)C(=O)[C@@]3(O)C(O)=C1C2=O", 0.5],
  ["CC[C@H]1OC(=O)[C@H](C)[C@@H](O[C@H]2C[C@@](C)(OC)[C@@H](O)[C@H](C)O2)[C@H](C)[C@@H](O[C@@H]2O[C@H](C)C[C@H](N(C)C)[C@H]2O)[C@](C)(O)C[C@@H](C)C(=O)[C@H](C)[C@@H](O)[C@]1(C)O", 0.5],
  ["Cc1onc(-c2ccccc2)c1C(=O)N[C@@H]1C(=O)N2[C@@H]1SC(C)(C)[C@@H]2C(=O)O", 0.5]
]}

###

- Tested on: Prevotella melaninogenica
- methodDescription: In vitro MIC testing against anaerobic bacteria
- Format: cell-based
- particulars: Prevotella melaninogenica 3443, read-out: MIC

{"columns": ["compound", "MIC (µg/mL)"],
 "data": [
  ["CN(C)[C@@H]1C(O)=C(C(N)=O)C(=O)[C@@]2(O)C(O)=C3C(=O)c4c(O)cccc4[C@@](C)(O)[C@H]3C[C@@H]12 [Tetracycline, tetracycline]", 8],
  ["CON(C)Cc1ccc(O)c2c1C[C@H]1C[C@H]3[C@H](N(C)C)C(O)=C(C(N)=O)C(=O)[C@@]3(O)C(O)=C1C2=O [The Active]", 4],
  ["CN(C)c1ccc(O)c2c1C[C@H]1C[C@H]3[C@H](N(C)C)C(O)=C(C(N)=O)C(=O)[C@@]3(O)C(O)=C1C2=O [Minocycline, minocycline]", 1],
  ["C[C@H]1c2cccc(O)c2C(=O)C2=C(O)[C@]3(O)C(=O)C(C(N)=O)=C(O)[C@@H](N(C)C)[C@@H]3[C@@H](O)[C@@H]21 [Doxycycline, doxycycline]", 1]
]}

###

- System: hospital-associated methicillin-resistant S. aureus (MRSA-HA)
- methodDescription: In vitro MIC against isolates of MRSA-HA
- Assay type: cell-based, Staphylococcus aureus
- particulars: Staphylococcus aureus; MRSA-HA (33 isolates)
MIC90 for assorted compounds
assayMetric: MIC90 (µg/mL)

{"columns": ["compound", "assayMetric", "qualifier", "measured"],
 "data": [
  ["CC(=O)NC[C@H]1CN(c2ccc(N3CCOCC3)c(F)c2)C(=O)O1 [Linezolid]", "MIC90", "=", 2],
  ["C[C@H]1c2cccc(O)c2C(=O)C2=C(O)[C@]3(O)C(=O)C(C(N)=O)=C(O)[C@@H](N(C)C)[C@@H]3[C@@H](O)[C@@H]21 [Doxycycline, doxycycline]", "MIC90", "=", 0.5],
  ["CCC[C@@H]1C[C@@H](C(=O)N[C@@H]([C@H]2O[C@H](SC)[C@H](O)[C@@H](O)[C@H]2O)[C@H](C)Cl)N(C)C1 [Clindamycin]", "MIC90", ">", 32],
  ["CON(C)Cc1ccc(O)c2c1C[C@H]1C[C@H]3[C@H](N(C)C)C(O)=C(C(N)=O)C(=O)[C@@]3(O)C(O)=C1C2=O [The Active]", "MIC90", "=", 0.5],
  ["Cc1onc(-c2ccccc2)c1C(=O)N[C@@H]1C(=O)N2[C@@H]1SC(C)(C)[C@@H]2C(=O)O [Oxacillin]", "MIC90", ">", 32]
]}
